Assay: Half-life in the blood plasma of humans
Type: in vivo
Conditions: human, approximately
Measurement Label: half-life

-- ask Give recorded half-life. `C/C(O)=C(\C#N)C(=O)Nc1ccc(C(F)(F)F)cc1`
-- reply ~14 days

###

Test: Blood plasma level of compound 1 in the rat with and without colestyramine (HPLC-MS/MS)
Format: in vivo
Conditions: male, Lewis, rat, plasma, oral, 2.5 mg/kg, single administration, 2.5 mg/kg of compound 1, rats with adjuvant arthritis
Experimental: A selective HPLC-MS/MS method was used for the detection of compound 1. The quantitative determination of compound 1 from the blood plasma was carried out as follows: […] The HPLC unit contained a Lichrospher C-18HD column. Using a flow rate of 1 ml/min, the analyte and the internal standard were eluted using the eluent combination acetonitrile+(ammonium acetate solution [10 mmolar]), 67+33, and then selectively detected by mass spectroscopy (LC-MS/MS analysis). […]
Measurement Label: half-life (min)
Write the answer as a number in min, unit excluded.

-- ask Answer with the recorded half-life of `C/C(O)=C(\C#N)C(=O)Nc1ccc(C(F)(F)F)cc1` only.
-- reply 231

###

Test: Blood plasma level of compound 1 in the rat with and without colestyramine (HPLC-MS/MS)
Type: in vivo
Settings: male, Lewis, rat, plasma, oral, single administration, 2.5 mg/kg of compound 1 and 1000 mg/kg of colestyramine 4 hours later
Measurement Label: half-life (h)
Please respond with the number in h and leave the unit unwritten.

-- ask Please indicate half-life recorded for `C/C(O)=C(\C#N)C(=O)Nc1ccc(C(F)(F)F)cc1`
-- reply 3.32

###

Experiment: Blood plasma level of compound 1 in the rat with and without colestyramine (HPLC-MS/MS)
Assay type: in vivo
Conditions: male, Lewis, rat, plasma, oral, 2.5 mg/kg, chronic administration, 2.5 mg/kg of compound 1
Measurement Label: half-life (h)
Respond numerically; units are h and should not be typed.

-- ask Consider the compound `C/C(O)=C(\C#N)C(=O)Nc1ccc(C(F)(F)F)cc1` . State its measured half-life.
-- reply 3.45

###

Assay: Tolerability of constant (mini-infusion pump) versus pulse-like (oral) blood levels (Example 5)
Type: in vivo, rat
Settings: male, Lewis, rat, plasma, subcutaneous; 5 mg/kg/day mini-infusion; read-out: Compound 1 blood plasma level (day 27)
Measurement Label: concentration at 27 day (ng/mL)
Respond numerically; units are ng/mL and should not be typed.

-- ask Give the reported concentration at 27 day for this compound. C/C(O)=C(\C#N)C(=O)Nc1ccc(C(F)(F)F)cc1 [compound 1]
-- reply 4180
